Target: Human MAT2A (Homo sapiens (Human), UniProt P31153)
Sequence (P31153 whole entry): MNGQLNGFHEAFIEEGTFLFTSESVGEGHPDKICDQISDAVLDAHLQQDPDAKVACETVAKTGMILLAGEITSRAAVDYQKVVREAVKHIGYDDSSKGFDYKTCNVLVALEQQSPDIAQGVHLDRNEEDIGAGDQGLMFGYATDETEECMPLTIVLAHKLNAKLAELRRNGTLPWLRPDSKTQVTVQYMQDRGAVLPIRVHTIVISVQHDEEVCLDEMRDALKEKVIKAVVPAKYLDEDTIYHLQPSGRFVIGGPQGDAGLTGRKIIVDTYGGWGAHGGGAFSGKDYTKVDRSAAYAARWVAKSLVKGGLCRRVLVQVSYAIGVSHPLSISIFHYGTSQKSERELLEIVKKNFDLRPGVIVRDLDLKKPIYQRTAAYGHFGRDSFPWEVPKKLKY
// reported IC50 for each item listed
quantity kind: IC50

- CN(C)c1nc(=O)n(-c2cccc(NC(=O)c3csc(-n4c(=O)nc(N(C)C)c5ccc(Cl)cc54)c3)c2)c2cc(Cl)ccc12: < 200 nM
- O=C(Nc1cccc(-n2c(=O)[nH]c(=O)c3ccc(Cl)cc32)c1)c1csc(-n2c(=O)[nH]c(=O)c3ccc(Cl)cc32)c1: < 200 nM
- CN(C)c1nc(=O)n(-c2cccc(NC(=O)c3csc(-n4c(=O)nc(N(C)C)c5ccc(C(F)(F)F)cc54)c3)c2)c2cc(C(F)(F)F)ccc12: < 200 nM
- Cc1c(C(=O)Nc2cccc(-n3c(=O)nc(N(C)C)c4ccc(Cl)cc43)c2)csc1-n1c(=O)nc(N(C)C)c2ccc(Cl)cc21: < 200 nM
- Cn1c(-n2c(=O)[nH]c(=O)c3ccc(Cl)cc32)cnc1C(=O)Nc1cccc(-n2c(=O)[nH]c(=O)c3ccc(Cl)cc32)c1: < 200 nM
- CN(C)c1nc(=O)n(-c2cccc(OCc3csc(-n4c(=O)nc(N(C)C)c5ccc(Cl)cc54)c3)c2)c2cc(Cl)ccc12: < 200 nM
